- ASSAY: Toxicity in C57BL/6J mouse at 10 mg/kg, ip
- Assay type: organism-based
- MEASUREMENT PARAMETERS: in vivo
MEASURED PARAMETER: Activity

Cc1ccccc1NCc1ccc(CNc2ccccc2C)s1 ... Non-Toxic
c1ccc(NCc2cscc2CNc2ccccc2)cc1 ... Non-Toxic
Clc1cccc(NCc2ccc(CNc3cccc(Cl)c3)s2)c1 ... Non-Toxic
COc1ccc(NCc2ccc(CNc3ccc(OC)cc3)s2)cc1 ... Non-Toxic
Cc1ccc(NCc2ccc(CNc3ccc(C)cc3)s2)cc1 ... Non-Toxic
Fc1ccccc1NCc1ccc(CNc2ccccc2F)o1 ... Non-Toxic
CN1CCN(Cc2ccc(CN3CCN(C)CC3)o2)CC1 ... Non-Toxic
Clc1ccccc1NCc1ccc(CNc2ccccc2Cl)s1 ... Non-Toxic
FC(F)(F)c1cccc(NCc2ccc(CNc3cccc(C(F)(F)F)c3)s2)c1 ... Non-Toxic
Clc1ccc(NCc2ccc(CNc3ccc(Cl)cc3)o2)cc1 ... Non-Toxic

// for each compound below, give its Activity
1. Fc1ccc(NCc2ccc(CNc3ccc(F)cc3)o2)cc1
2. c1ccc(NCc2ccc(CNc3ccccc3)s2)cc1

stdout:
Non-Toxic
Non-Toxic

----------
- EXPERIMENTAL TARGET: C-X-C chemokine receptor type 4 (Homo sapiens)
- ASSAY: Inhibition of biotinylated TN14003 binding to CXCR4 in human MDA-MB-231 cells preincubated for 10 mins followed by biotinylated-TN14003 addition measured after 30 mins by streptavidin-rhodamine staining based fluorescence microscopic analysis
- Type: cell-based
MEASURED PARAMETER: EC (nM)
One number for each entry, in nM.

The following compounds have reported results that may help.
CN1CCN(Cc2ccc(CN3CCN(C)CC3)s2)CC1 ... 100
c1ccc(NCc2ccc(CNc3ccccc3)s2)cc1 ... 1
Fc1ccc(NCc2ccc(CNc3ccc(F)cc3)o2)cc1 ... 100
Fc1ccccc1NCc1ccc(CNc2ccccc2F)o1 ... 10
Cc1ccccc1NCc1ccc(CNc2ccccc2C)s1 ... 10
FC(F)(F)c1ccccc1NCc1ccc(CNc2ccccc2C(F)(F)F)o1 ... 100
COc1ccccc1NCc1ccc(CNc2ccccc2OC)s1 ... 10
CSc1ccc(NCc2ccc(CNc3ccc(SC)cc3)s2)cc1 ... 100
CCc1ccccc1NCc1ccc(CNc2ccccc2CC)o1 ... 1000
CN1CCN(Cc2ccc(CN3CCN(C)CC3)o2)CC1 ... 10

stdin: Provide one value: measured EC of `Clc1cccc(NCc2ccc(CNc3cccc(Cl)c3)s2)c1`
stdout: 100

----------
- EXPERIMENTAL TARGET: UniProt:P61073
- Sequence (P61073 whole entry): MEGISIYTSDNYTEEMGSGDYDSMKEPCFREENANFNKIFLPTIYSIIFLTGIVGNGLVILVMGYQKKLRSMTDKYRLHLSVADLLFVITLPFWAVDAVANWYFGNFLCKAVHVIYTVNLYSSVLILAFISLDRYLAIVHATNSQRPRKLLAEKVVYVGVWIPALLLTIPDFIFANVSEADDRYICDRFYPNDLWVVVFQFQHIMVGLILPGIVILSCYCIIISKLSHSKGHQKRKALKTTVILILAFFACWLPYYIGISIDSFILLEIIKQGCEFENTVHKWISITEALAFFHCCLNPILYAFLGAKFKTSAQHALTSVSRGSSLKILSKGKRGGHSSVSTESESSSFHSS
- ASSAY: Inhibition of biotinylated TN14003 binding to CXCR4 in human MDA-MB-231 cells preincubated for 10 mins followed by biotinylated-TN14003 addition measured after 30 mins by streptavidin-rhodamine staining based fluorescence microscopic analysis
- Assay type: cell-based
MEASURED PARAMETER: EC (nM)
Give bare numbers, in nM.

Clc1ccc(NCc2ccc(CNc3ccc(Cl)cc3)o2)cc1 ... 10
Clc1ccc(NCc2ccc(CNc3ccc(Cl)cc3)s2)cc1 ... 1
Fc1ccccc1NCc1ccc(CNc2ccccc2F)s1 ... 1000

Attention now turns to another entry.
stdin: Supply recorded EC for `Cc1ccc(NCc2ccc(CNc3ccc(C)cc3)s2)cc1` here.
stdout: 100
